- Assay Remarks: Acute toxicity, lethal dose 50 (Litchfield-Wilcoxon), intraperitoneal
- Run Parameters: mouse, in vivo, ip, mice, deaths recorded three days after administration
Field: LD50 at 72 h. Provide a value for each of the compounds that follow.

// for each compound in input: emit LD50 at 72 h
1. O=C(Cc1ccccc1)NC(c1ccncc1)C(NC(=O)Cc1ccccc1)c1ccncc1 (centres unmarked)
2. CC(C)(C)c1ccc(C(=O)NC(c2ccncc2)C(NC(=O)c2ccc(C(C)(C)C)cc2)c2ccncc2)cc1 (centres unmarked)
3. O=C(NC(c1ccncc1)C(NC(=O)c1ccc(-c2ccccc2)cc1)c1ccncc1)c1ccc(-c2ccccc2)cc1 (centres unmarked)
4. CC(=O)NC(c1ccncc1)C(NC(C)=O)c1ccncc1 (centres unmarked)
5. CCCC(CCC)C(=O)NC(c1ccncc1)C(NC(=O)C(CCC)CCC)c1ccncc1 (centres unmarked)
6. O=C(NC(c1ccncc1)C(NC(=O)c1ccc(Cl)cc1)c1ccncc1)c1ccc(Cl)cc1 (centres unmarked)
7. CCC(=O)O[C@](Cc1ccccc1)(c1ccccc1)[C@H](C)CN(C)C [Dextropropoxyphene, dextropropoxyphene, reference compound]

Solution:
1. 1540 mg/kg
2. > 1600 mg/kg
3. > 1600 mg/kg
4. 1120 mg/kg
5. > 1600 mg/kg
6. > 1600 mg/kg
7. 140 mg/kg

// for each compound in input: emit LD50 at 72 h
1. COc1ccc(C(=O)NC(c2ccncc2)C(NC(=O)c2ccc(OC)cc2)c2ccncc2)cc1 (centres unmarked)
2. Cc1cccc(C(=O)NC(c2ccncc2)C(NC(=O)c2cccc(C)c2)c2ccncc2)c1 (centres unmarked)
3. Cc1ccccc1C(=O)NC(c1ccncc1)C(NC(=O)c1ccccc1C)c1ccncc1 (centres unmarked)
4. CS(=O)(=O)c1ccc(C(=O)NC(c2ccncc2)C(NC(=O)c2ccc(S(C)(=O)=O)cc2)c2ccncc2)cc1 (centres unmarked)
5. O=C(NC(c1ccncc1)C(NC(=O)c1ccc(C(F)(F)F)cc1)c1ccncc1)c1ccc(C(F)(F)F)cc1 (centres unmarked)
6. O=C(NC(c1ccncc1)C(NC(=O)c1ccccc1Cl)c1ccncc1)c1ccccc1Cl (centres unmarked)
7. O=C(NC(c1ccncc1)C(NC(=O)c1cc(Cl)cc(Cl)c1)c1ccncc1)c1cc(Cl)cc(Cl)c1 (centres unmarked)
8. O=C(NC(c1ccncc1)C(NC(=O)c1ccc([N+](=O)[O-])cc1)c1ccncc1)c1ccc([N+](=O)[O-])cc1 (centres unmarked)

Solution:
> 1600 mg/kg
> 1400 mg/kg
> 1600 mg/kg
> 2000 mg/kg
> 1200 mg/kg
1060 mg/kg
> 1200 mg/kg
> 1600 mg/kg

// for each compound in input: emit LD50 at 72 h
1. O=C(NC(c1ccncc1)C(NC(=O)c1ccccc1)c1ccncc1)c1ccccc1 (centres unmarked)
2. O=C(NC(c1ccncc1)C(NC(=O)c1cccc(Cl)c1)c1ccncc1)c1cccc(Cl)c1 (centres unmarked)

Solution:
1. > 1300 mg/kg
2. > 1300 mg/kg

// for each compound in input: emit LD50 at 72 h
1. Cc1ccc(C(=O)NC(c2ccncc2)C(NC(=O)c2ccc(C)cc2)c2ccncc2)cc1 (centres unmarked)
2. O=C(NC(c1ccncc1)C(NC(=O)c1ccc(F)cc1)c1ccncc1)c1ccc(F)cc1 (centres unmarked)
3. Cc1cc(C)cc(C(=O)NC(c2ccncc2)C(NC(=O)c2cc(C)cc(C)c2)c2ccncc2)c1 (centres unmarked)

Solution:
["> 1660 mg/kg", "1110 mg/kg", "> 1600 mg/kg"]
